Test system: rumen fluid
Test: in vitro ruminal fermentation, 22 muramidases, 12 h (Example 4)
Parameters: species or system cow
Conditions: sum of VFA after 12 h; muramidase 0.20 mg/40 ml
Experimental: The trial was performed by Alimetrics (Alimetrics Ltd, Koskelontie 19B, FIN-02920 Espoo, Finland) using 120 mL serum bottles as fermentation vessels. […] Following inoculation with rumen fluid, buffer and test solution, the vessels were sealed with the butyl rubber septum's. […] Fermentation gas produced was measured and relived by collection of the fermentation gas in syringes at time 3, 6, 9, and 12 h. Feed residues were measured after 12 h fermentation. […]
parameter measured: Total VFA (mmol/L)
Output spec: scalar in mmol/L, unitless text.

input: Fill in: Total VFA of Y: mature muramidase polypeptide from Ovatospora brasiliensis, novel MUR polypeptide; Y in Example 4 (protein, listed as Ovatospora brasiliensis) YPVKADSLNCRSGPGTSYKVVKTYKKGADIKISCQTEGPSVNGDNLWIKTQDGCYVADYYVKTGTNGYVAKKCSSGGSTGGGSGGGKGNLPGLNAKQSSHARAIVAQAKKDGVGLHGCEAGIATALVESGIKVYANKKVPASLKYPHDAVGSDHDSIGIFQQRAVYYPNIAADMDPARSAHQFFAKMKGVSGWKTMAVGKLCQKVQVSAYPDRYAKRVSEATKICKAAGI is ___
output: 100

input: Query V: mature muramidase polypeptide from Acremonium exiguum, novel MUR polypeptide; V in Example 4 (protein, listed as Acremonium exiguum) RSIPIVARAYPGLDDVQSRNAEAALGEIRAEGINPARQACLAVISTALQESELYIYANPAVPESMNYPHDREGGDQDSVGMFQQRPEWYPDIAADMSASGSTRQFLAAMLQVPGWQTMEVSALDQEVQKAEAGNLYGQRIPLATQVCDAAGF next
output: 97

input: # iterate: N: mature muramidase polypeptide from Ovatospora brasiliensis, GH25; N in Example 4 (protein, listed as Ovatospora brasiliensis) FDISNWQPAGTVDFAAAYSSGARFVIIKATEGTSYIDPSFSSHYTKATNAGFIRGGYHFAHPGETTGAAEADYFIAHGGGWSNDGITLPGMLDLESENKGQCWGLSTSAMVSWIKSFSDRYKSRTGVYPLIYTNPSWWSACTGNSNAFVNTNPLVLARYASAPGTIPGGWPYQTIWQNSDSYAYGGDSDIFNGSLDRLKALAKGS
output: 98
